meta.source: PubChem BioAssay

composite z-score overview
test: probe aLefty2 binding to arrayed compounds – biochemical, biotinylated probe, 635/667 nm fluorescence, primary screen (AID 1094); details: small-molecule microarray, higher = more signal;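 also: score merges spot fluorescence near 667 nm with spot signal-to-noise ratio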
Keep the answer to the number alone.

Please review the entries below; each comes with its answer.
COCCOC(=O)N1C(=O)[C@@]2(c3cc(C#CC4(O)CCCCCC4)ccc31)[C@H](C(=O)N1CCc3cc(OC)c(OC)cc3C1)[C@H]1C(=O)O[C@H](c3ccccc3)[C@H](c3ccccc3)N1[C@@H]2c1ccc(OCCO)cc1 | -0.0585
O=C1OCCC/C=C\[C@H]2OC34C=CCN(c5ccc6ccccc6c5)C(=O)[C@H]3N(CCO)C(=O)[C@@H]4C12 (stereo partly specified) | -0.14
C=CCNC(=O)[C@@H]1[C@H]2C(=O)O[C@H](c3ccccc3)[C@H](c3ccccc3)N2[C@H](c2ccccc2OCCO)[C@@]12C(=O)Nc1ccc(C#CCC(C(=O)OC)C(=O)OC)cc12 | -0.366
CC(C)NC(=O)[C@@]1(C)c2ccccc2C(=O)N(Cc2ccc(OC(F)(F)F)cc2)[C@H]1c1ccc(CO)cc1 | -0.221
COCCOC(=O)N1C(=O)[C@@]2(c3cc(C#CCCO)ccc31)[C@H](C(=O)Nc1nc3ccccc3s1)[C@H]1C(=O)O[C@H](c3ccccc3)[C@H](c3ccccc3)N1[C@@H]2c1ccc(O)cc1 | 0.027

Noted for O=C(C1N=C(c2ccc(OCCCO)cc2)N(c2ccccc2)O1)N1CCCCC1 (stereo unspecified) : its composite z-score reads 0.226

###

experiment: optical density change of DRC41 E. coli – strain DRC41, OD650, 24 h, E. coli filamentation project, primary screen (AID 1093);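 also: MC1000 strain lacking acrAB efflux and sulA so SOS filamentation is blocked; test concentration not given here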; conditions: E. coli DRC41 growth, higher = more signal, called active from +8 up or from −8 down
So basically: z-score at -1 or higher? That is YES. Lower than -1? That is NO.

Recorded results for 8 compounds are shown here.
[N-]=[N+]=Nc1ccccc1[C@H]1OC(c2ccc(OCCCO)cc2)=N[C@@]1(Cc1ccccc1)C(=O)NCCN1CCOCC1 | YES
CC1CC/C=C\[C@H]2OC34C=CCN(c5ccc6ccccc6c5)C(=O)[C@H]3N(CCCO)C(=O)[C@@H]4C2C(=O)O1 (stereo not given in full) | YES
Cc1ccc(N2C(=O)c3ccccc3[C@@H](C(=O)NCCCN(C)C)[C@@H]2c2ccc(CO)cc2)nc1 | YES
C=CCC(OC(C)=O)[C@@H]1[C@@H](N(Cc2cc3ccccc3o2)C(=O)Cc2ccc(F)cc2)c2cc(OCCCO)ccc2N1C(=O)Cc1ccc2ccccc2c1 (stereo not given in full) | NO
O[C@@H](Cc1ccccc1)[C@@H](/C=C/C1CC1)N(CC#Cc1ccccc1)Cc1ccccc1Br | YES
[N-]=[N+]=Nc1ccccc1C[C@@]1(C(=O)N2CCOCC2)N=C(c2ccc(OCCCO)cc2)O[C@@H]1c1ccccc1 | YES
COc1ccc([Si](C)(C)[C@@H]2[C@@H](CCO)O[C@]3(C(=O)N(Cc4cccc(NC(=O)[C@H](C)O)c4)c4ccccc43)[C@H]2C)cc1 | YES
CN1C(=O)C2C=CC(C(O)c3cccn3C)N(Nc3ccc([N+](=O)[O-])cc3[N+](=O)[O-])C2C1=O (stereo not given) | YES

Please turn your attention to the following entry.
Is it the case that CC(C)=C1C(=O)C(c2ccccc2)=C2CN3C(=O)N(CCc4ccccc4)C(=O)[C@]3(Cc3ccc(C(F)(F)F)cc3)[C@H]21 has z-score reaching or exceeding -1?
NO
